- System: HPV31
- PROTOCOL_NOTES: Inhibition of viral replication in cells that maintain HPV31 DNA, viral DNA quantified by real-time PCR
- Type: cell-based, Human papilloma virus
- EXPERIMENTAL_CONTEXT: cells maintaining HPV31 cultured 72 hours with polyamide; vs DMSO control; highest dose tested 10 μM
pIC50: −log10 of the molar value.
REPORTED_ENDPOINT: pIC50

CHEM_SMILES	REPORTED_ENDPOINT	MEASURED_NUMBER
CN(CCCN)CCCNC(=O)CCNC(=O)c1cc(NC(=O)CCNC(=O)c2cc(NC(=O)c3cc(NC(=O)c4cc(NC(=O)CCNC(=O)c5cc(NC(=O)c6cc(NC(=O)CCNC(=O)c7cc(NC(=O)[C@H](N)CCNC(=O)c8nc(NC(=O)c9cc(NC(=O)CCNC(=O)c%10cc(NC(=O)c%11cc(NC(=O)CCNC(=O)c%12cc(NC(=O)c%13cc(NC(=O)c%14cc(N=C(N(C)C)N(C)C)cn%14C)cn%13C)cn%12C)cn%11C)cn%10C)cn9C)cn8C)cn7C)cn6C)cn5C)cn4C)cn3C)cn2C)cn1C	pIC50	6.66
CN(CCCN)CCCNC(=O)CCNC(=O)c1cc(NC(=O)CCNC(=O)c2cc(NC(=O)c3cc(NC(=O)c4cc(NC(=O)CCNC(=O)c5cc(NC(=O)c6cc(NC(=O)c7cc(NC(=O)[C@@H](CCNC(=O)c8cc(NC(=O)CCNC(=O)c9cc(NC(=O)c%10cc(NC(=O)CCNC(=O)c%11cc(NC(=O)c%12cc(NC(=O)c%13cc(N=C(N(C)C)N(C)C)cn%13C)cn%12C)cn%11C)cn%10C)cn9C)cn8C)NC(=O)NCCCN(C)CCCN)cn7C)cn6C)cn5C)cn4C)cn3C)cn2C)cn1C	pIC50	7.28
CN(CCCN)CCCNC(=O)CCNC(=O)c1cc(NC(=O)CCNC(=O)c2cc(NC(=O)c3cc(NC(=O)c4cc(NC(=O)CCNC(=O)c5cc(NC(=O)c6cc(NC(=O)c7cc(NC(=O)CCCNC(=O)c8cc(NC(=O)CCNC(=O)c9cc(NC(=O)c%10cc(NC(=O)CCNC(=O)c%11cc(NC(=O)c%12cc(NC(=O)c%13cc(N=C(N(C)C)N(C)C)cn%13C)cn%12C)cn%11C)cn%10C)cn9C)cn8C)cn7C)cn6C)cn5C)cn4C)cn3C)cn2C)cn1C	pIC50	7.62
